molecular target: α1D (Homo sapiens, UniProt P25100); experiment: Radioligand displacement, α1D; format: binding; settings: read-out: Ki
Sequence (P25100 whole entry): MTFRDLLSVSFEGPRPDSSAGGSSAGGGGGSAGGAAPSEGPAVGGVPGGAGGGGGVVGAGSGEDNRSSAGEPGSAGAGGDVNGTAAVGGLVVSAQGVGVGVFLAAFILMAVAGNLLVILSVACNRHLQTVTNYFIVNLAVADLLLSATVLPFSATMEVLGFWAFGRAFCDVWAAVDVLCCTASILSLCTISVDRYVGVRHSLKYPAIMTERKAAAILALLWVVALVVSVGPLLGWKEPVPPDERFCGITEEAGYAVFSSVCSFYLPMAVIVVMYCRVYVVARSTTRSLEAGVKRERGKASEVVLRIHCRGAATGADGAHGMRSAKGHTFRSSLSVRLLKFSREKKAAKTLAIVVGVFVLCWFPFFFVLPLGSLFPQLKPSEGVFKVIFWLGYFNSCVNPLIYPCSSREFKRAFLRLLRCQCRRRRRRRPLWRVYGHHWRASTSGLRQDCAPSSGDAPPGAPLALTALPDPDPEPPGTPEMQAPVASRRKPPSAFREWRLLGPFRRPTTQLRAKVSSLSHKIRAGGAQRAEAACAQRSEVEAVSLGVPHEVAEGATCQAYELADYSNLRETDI
pKi: −log10 of the molar value.
Measured Attribute: pKi

stdin: Consider the molecule shown here: CC(C)[C@@H](CN1CC[C@@](C)(c2cccc(O)c2)[C@@H](C)C1)NC(=O)[C@H]1Cc2ccc(O)cc2CN1 [JDTic] What is its recorded pKi?
stdout: ≤ 5.00

* * *

biological target: α1D (Homo sapiens, UniProt P25100); assay: Radioligand displacement, α1D; type: binding
pKi: −log10 of the molar value.
Measured Attribute: pKi

1. Oc1ccc2c3c1O[C@H]1c4[nH]c5c(c4C[C@@]4(O)[C@@H](C2)N(CC2CC2)CC[C@]314)C[C@@]1(O)[C@H]2Cc3ccc(O)c4c3[C@@]1(CCN2CC1CC1)[C@H]5O4 | ≤ 5.00

As a next step, examine the compound that follows.
stdin: Consider the compound shown here: N=C(N)Nc1ccc2[nH]c3c(c2c1)C[C@@]1(O)[C@H]2Cc4ccc(O)c5c4[C@@]1(CCN2CC1CC1)[C@H]3O5 What is its recorded pKi?
stdout: ≤ 5.00
